Each entry below carries its recorded Kd.
Biological target: T1, DND1 1-230 (RRM1-RRM2) (human, UniProt Q8IYX4 1-230)
T1 sequence: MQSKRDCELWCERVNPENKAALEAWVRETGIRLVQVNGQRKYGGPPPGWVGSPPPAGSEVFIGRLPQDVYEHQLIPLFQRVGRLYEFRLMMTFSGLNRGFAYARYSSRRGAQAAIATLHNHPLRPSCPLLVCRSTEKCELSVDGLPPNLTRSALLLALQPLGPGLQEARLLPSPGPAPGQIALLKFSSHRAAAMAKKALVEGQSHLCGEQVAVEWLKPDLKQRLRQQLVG
Assay: MST; MST: 20 mM HEPES pH 7.4, 150 mM NaCl, 1 mM DTT, 0.05% Tween20 and 10 ug/mL yeast tRNA after 1:1 mixing, 5 nM Cy5-RNA, partner 2 uM final, 30 min at room temperature, measured at 25 C
Conditions: protein: recombinant; tags: His6-SUMO removed by Ulp1; N-terminal Ser (residue 0) from BamHI site; label: 5'-Cy5

| BINDER | UNIT_OF_MEASUREMENT | Kd |
| --- | --- | --- |
| AUAUGACCCAUUU (ssRNA) [spacer] | µM | 8.2 |
| AUGCCAAUUU (ssRNA) [D1mut] | µM | 15 |
| AUGCCACUCU (ssRNA) [D1-N3mut] | µM | 11 |
| AUAUGACUCU (ssRNA) [N3mut] | µM | 6.4 |
